- assay-info: RAM signaling pathway blockade in yeast – S. cerevisiae, Pdr1DBD-CYC8 efflux-inhibited sensitized strain, primary screen (AID 1298);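 also: 0% = DMSO untreated cells without growth and 100% = 10 µM 1-NA-PP1 full growth; higher means more yeast growth rescued from 5-FOA killing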
- condition-description: S. cerevisiae cbk1-as DSE1-URA3 strain, 5-FOA growth OD615, 2 d; at 50 µM; stronger effect = higher value
The molecules listed here are annotated with their RAM network inhibition.
Give the number; % is assumed, so skip it.

# count of solved cases: 10
CCCn1c(CN2CCCCC2CC)nc2c1c(=O)n(C)c(=O)n2C (stereo unspecified) | 4.81
O=C(Nc1ccc(S(=O)(=O)N2CCCCCC2)cc1)c1ccc(Br)o1 | 5.05
COc1ccccc1OCC(=O)Nc1ccc(S(=O)(=O)NC(C)=O)cc1 | 2.08
O=C(Nc1ccccc1Cl)c1ccc(S(=O)(=O)N2CCOCC2)cc1 | 2.05
Nc1cc(=O)[nH]c(SCc2nc3ccccc3n2Cc2ccccc2)n1 | 6.17
COC(=O)C1=CN(C(C)C)C=C(C(=O)OC)C1c1cccc(OC)c1 | 5.46
O=C(c1csc2c1CCCC2)N1CCCCC1 | 1.12
CC1=CC(c2ccccc2)n2nc(NS(=O)(=O)c3ccc(C)cc3)nc2N1 (stereo unspecified) | 2.86
CC(=O)c1ccc(Nc2cc(C)nc3nc(C)nn23)cc1 | -1.56
COCCN1Cc2cccc(C(=O)NCc3cccnc3)c2C1=O | 0.51

stdin: Please supply the value of reported RAM network inhibition for the item CC(C)n1c(C(O)c2ccc3c(c2)OCO3)nc2ccccc21 (stereo unspecified)
stdout: 2.89

====

- assay-info: RAM signaling pathway blockade in yeast – S. cerevisiae, Pdr1DBD-CYC8 efflux-inhibited sensitized strain, primary screen (AID 1298);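 also: 0% = DMSO untreated cells without growth and 100% = 10 µM 1-NA-PP1 full growth; higher means more yeast growth rescued from 5-FOA killing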
- condition-description: S. cerevisiae cbk1-as DSE1-URA3 strain, 5-FOA growth OD615, 2 d; at 50 µM; stronger effect = higher value
outcome-measure: RAM network inhibition (%)
Reply with just the number (in %).

Some solved cases for reference:
CCOc1ccc(NC2CCN(C(C)=O)CC2)cc1 | 6.44
CCOC(=O)c1ccc(NC(=O)c2nn(C)cc2Br)cc1 | 6.88
N#Cc1c(SCC(N)=O)nc2c(c1-c1ccc(O)cc1)CCCC2 | 4.51
COC(=O)c1ccccc1NS(=O)(=O)c1cn(C)c(=O)n(C)c1=O | 1.2
Brc1cccc(-c2nnc3sc(CNCc4ccco4)cn23)c1 | 8.75
COc1cccc(-n2c(Cc3cc(=O)[nH]c(=O)[nH]3)nnc2SCC(=O)N2CCCCC2)c1 | 5.28

stdin: Specify measured RAM network inhibition for `Cn1c(Cn2c(=O)sc3ccccc32)nnc1SCC(=O)Nc1ccc(Cl)cc1` .
stdout: 5.32

stdin: Give RAM network inhibition for the following molecule: `COc1ccc(NC(=O)C2CCN(C(=O)c3ccccc3)CC2)c(OC)c1`
stdout: 3.44

stdin: Annotate the molecule O=C(CCC1CC(=O)Nc2ccccc21)NCc1cccnc1 (stereo unspecified) with its measured RAM network inhibition.
stdout: 12.5

stdin: Note down RAM network inhibition recorded for Cc1cc(NC(=O)C2CC(c3ccc(F)cc3)=NO2)n(-c2ccccc2)n1 (stereo unspecified)
stdout: -1.56

stdin: Quick one: give measured RAM network inhibition for `O=S(=O)(c1ccc(Br)cc1)N1CCn2c(nc3ccccc32)C1`
stdout: 6.31

====

- assay-info: OD615 S. cerevisiae growth inhibition, permissive medium, pilot counter-assay, permissive growth control for S. cerevisiae lifespan shortening project (AID 705)
- condition-description: OD615, 24 h, at 10 µM, stronger effect = higher value
outcome-measure: growth inhibition (%)
Record the value in %, omitting the unit from your answer.

In the examples that follow, each entry is paired with its recorded growth inhibition.
CC1CCCN(C(C(=O)Nc2ccc3c(c2)OCO3)c2ccccc2)C1 (stereo unspecified) | -8.14
Cc1ccc(-c2nn3c(C)nnc3s2)cc1NC(=O)C(C)C | -1.65
Cc1nn(-c2ccccc2)c(C)c1NC(=O)Cc1cccs1 | -10.7
CSC1=N/C(=C\c2ccccc2F)C(=O)S1 | -23.1
CCCCOc1ccc(CN2CCC(O)CC2)cc1 | -18.6
C=C(C)Cn1c(SCC(=O)O)nc2c1c(=O)[nH]c(=O)n2C | -15.9

stdin: State its growth inhibition for this molecule: `Cc1cc(C)cc(N(CC(=O)Nc2c(C)n(C)n(-c3ccccc3)c2=O)S(C)(=O)=O)c1`
stdout: -11.3

stdin: Using the record for `COc1ccc(CCNC(=O)CCn2c(=O)oc3ccccc32)cc1OC` , state its measured growth inhibition.
stdout: -6.99

stdin: Quickly give me recorded growth inhibition for `C=CCNC(=O)COc1ccc(Br)cc1Cl`
stdout: -15.7

stdin: Give recorded growth inhibition. COc1ccc(OC)c(C2CC(=O)c3c([nH]c(C(=O)OC(C)C)c3C)C2)c1 (stereo unspecified)
stdout: -9.82

stdin: Name the recorded growth inhibition of the molecule listed here: `CC(=O)NCc1nc2ccccc2n1Cc1ccccc1F`
stdout: -7.66
